- Tested on: c-Abl (mouse)
- TEST: phosphorylation enrichment, bacterial display (enrichment ratio); higher = better substrate or ligand; peptides without Tyr show the background;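 further: 11-residue human phosphosite peptides and single-mutation variants displayed on the E. coli surface, counted by deep sequencing, each peptide's frequency after selection divided by its frequency in the unselected input library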;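 further: frequency after pTyr selection over input frequency; kinase dosed for 20-30% of maximal phosphorylation in three min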

{"SEQUENCE_ENTRY": "HEGKIYEFNQV [ZNF665_Y162_YF]", "phosphorylation enrichment": 1.6}
{"SEQUENCE_ENTRY": "SIKDKYVTAFF [KCNH2_Y611_L615F_YF]", "phosphorylation enrichment": 0.635}
{"SEQUENCE_ENTRY": "HYEDGYPGGSD [CTNND1_Y221]", "phosphorylation enrichment": 1.12}
{"SEQUENCE_ENTRY": "QGIIIYKAAFF [SLC25A4_Y187_R188K_YF]", "phosphorylation enrichment": 1.1}
{"SEQUENCE_ENTRY": "KEKLCYVALDF [ACTA1_Y220]", "phosphorylation enrichment": 0.877}
{"SEQUENCE_ENTRY": "ARSHIYTFSSC [MEFV_Y741_A744S]", "phosphorylation enrichment": 0.578}
{"SEQUENCE_ENTRY": "QTLTDYDIRFY [CSNK2A1_Y131]", "phosphorylation enrichment": 0.913}
{"SEQUENCE_ENTRY": "APAHKYHGGGG [HBD_Y146_L142P]", "phosphorylation enrichment": 0.616}
{"SEQUENCE_ENTRY": "YFRDGHMPRQY [GSS_Y270_Y270H]", "phosphorylation enrichment": 0.541}
{"SEQUENCE_ENTRY": "EKQVAYCPSGR [ROS1_Y2323_K2328R]", "phosphorylation enrichment": 1.06}
{"SEQUENCE_ENTRY": "LSVEIYDRREF [ITGB7_Y753_YF]", "phosphorylation enrichment": 0.569}
{"SEQUENCE_ENTRY": "ITRDEYPSNPM [CEMIP2_Y1015]", "phosphorylation enrichment": 0.414}
{"SEQUENCE_ENTRY": "ANSSFHSTRSA [NUMA1_Y1836_Y1836H]", "phosphorylation enrichment": 0.616}
{"SEQUENCE_ENTRY": "LKGQVYILGLE [ASS1_Y359_R363L]", "phosphorylation enrichment": 0.759}

###

- STUDY_SYSTEM: EPHB1 (UniProt P54762)
- Sequence (P54762 whole entry, looked up): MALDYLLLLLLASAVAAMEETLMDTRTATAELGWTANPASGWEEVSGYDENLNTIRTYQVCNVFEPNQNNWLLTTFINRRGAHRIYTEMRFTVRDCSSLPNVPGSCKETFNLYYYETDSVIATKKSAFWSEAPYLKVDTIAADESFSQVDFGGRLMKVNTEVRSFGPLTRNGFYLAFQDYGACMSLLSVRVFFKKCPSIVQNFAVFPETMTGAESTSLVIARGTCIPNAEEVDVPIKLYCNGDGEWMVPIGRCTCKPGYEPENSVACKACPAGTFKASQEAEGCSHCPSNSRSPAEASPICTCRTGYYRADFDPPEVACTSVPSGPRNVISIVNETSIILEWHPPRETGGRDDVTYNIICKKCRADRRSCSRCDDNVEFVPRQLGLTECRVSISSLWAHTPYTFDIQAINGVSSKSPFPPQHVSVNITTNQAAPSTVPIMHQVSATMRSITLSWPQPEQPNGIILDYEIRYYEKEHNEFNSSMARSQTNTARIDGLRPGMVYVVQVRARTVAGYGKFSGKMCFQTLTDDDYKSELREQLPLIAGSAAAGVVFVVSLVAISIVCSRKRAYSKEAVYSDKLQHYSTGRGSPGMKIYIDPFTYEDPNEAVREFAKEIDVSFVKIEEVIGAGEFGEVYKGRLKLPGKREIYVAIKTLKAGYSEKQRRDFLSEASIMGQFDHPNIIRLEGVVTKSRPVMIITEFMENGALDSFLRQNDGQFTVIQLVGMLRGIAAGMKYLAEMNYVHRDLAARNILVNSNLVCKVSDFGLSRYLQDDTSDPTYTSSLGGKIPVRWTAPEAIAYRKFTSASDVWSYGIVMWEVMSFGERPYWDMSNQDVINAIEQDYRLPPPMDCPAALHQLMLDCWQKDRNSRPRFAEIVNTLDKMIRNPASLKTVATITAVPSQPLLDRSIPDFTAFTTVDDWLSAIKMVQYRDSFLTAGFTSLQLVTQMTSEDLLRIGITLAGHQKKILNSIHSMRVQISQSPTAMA
- TEST: phosphorylation enrichment, bacterial display (enrichment ratio); higher = better substrate or ligand; peptides without Tyr show the background
Would you mind labelling by phosphorylation enrichment? At or over 0.6 is 1.0, under is 0.0.

{"SEQUENCE_ENTRY": "PEVSGYCHYAD [TG_Y234_C237Y]", "CLASS": 1.0}
{"SEQUENCE_ENTRY": "RLLVVYSWTQR [HBB_Y36_P37S]", "CLASS": 1.0}
{"SEQUENCE_ENTRY": "IFETDYFRKGG [INSR_Y1189_YF]", "CLASS": 0.0}
{"SEQUENCE_ENTRY": "TVFSDYLHPQF [CCPG1_Y569_YF]", "CLASS": 1.0}
{"SEQUENCE_ENTRY": "GFEEAYSVSKK [PAFAH1B1_Y28_F31S_YF]", "CLASS": 0.0}
{"SEQUENCE_ENTRY": "HFVDEYDPTME [KRAS_Y32_I36M]", "CLASS": 1.0}
{"SEQUENCE_ENTRY": "FSTPPYLLEAA [BRIP1_Y921_S919P_YF]", "CLASS": 0.0}
{"SEQUENCE_ENTRY": "PADQAYSWYQH [NDST1_Y711_R709Q]", "CLASS": 1.0}
{"SEQUENCE_ENTRY": "AASHRYDLGGL [QPRT_Y162]", "CLASS": 0.0}
{"SEQUENCE_ENTRY": "EKKKYYDAKIE [CASP5_Y104_T106A]", "CLASS": 1.0}
{"SEQUENCE_ENTRY": "SSVAGYACLAY [MVD_Y131_A128V]", "CLASS": 0.0}
{"SEQUENCE_ENTRY": "PTTKTYFPHFF [HBA1_Y43_D48Y_YF]", "CLASS": 0.0}
{"SEQUENCE_ENTRY": "CEHFSYYGMKA [SLC15A2_Y60_R57H]", "CLASS": 0.0}
{"SEQUENCE_ENTRY": "SVCPDYDLCSI [SQSTM1_Y148_V153I]", "CLASS": 1.0}
{"SEQUENCE_ENTRY": "SVKVFYKKCWS [EPHA7_Y202_YF]", "CLASS": 1.0}
{"SEQUENCE_ENTRY": "TTPAVYARVTK [CTRB2_Y246_A250T]", "CLASS": 1.0}
{"SEQUENCE_ENTRY": "SQDSAYHSGIQ [FLG_Y3940]", "CLASS": 0.0}
{"SEQUENCE_ENTRY": "EGLRRYLENGK [HLA-A_Y195_W191G]", "CLASS": 0.0}
{"SEQUENCE_ENTRY": "KGEDFYCVTFH [FHL1_Y149_C153Y_YF]", "CLASS": 1.0}
{"SEQUENCE_ENTRY": "SIKDKYVTAFF [KCNH2_Y611_L615F_YF]", "CLASS": 0.0}
{"SEQUENCE_ENTRY": "SASQEYHIVKK [PDZD2_Y557]", "CLASS": 0.0}
{"SEQUENCE_ENTRY": "FHKALYTVRTF [PDE6C_Y266_S270T_YF]", "CLASS": 0.0}
{"SEQUENCE_ENTRY": "GKMSSYAFFVQ [HMGB1_Y16]", "CLASS": 1.0}
{"SEQUENCE_ENTRY": "RREWYYEVIIA [BACE1_Y260_V265A]", "CLASS": 0.0}
{"SEQUENCE_ENTRY": "ELAVNYQEQAS [SLC9A9_Y591_I589V]", "CLASS": 0.0}
{"SEQUENCE_ENTRY": "FLLRVYSIFSK [SGCE_Y38_T36R]", "CLASS": 0.0}
{"SEQUENCE_ENTRY": "RGKDSYETSKL [SPP1_Y225_Q229K]", "CLASS": 1.0}

###

Let's look at some sequences and their measured phosphorylation enrichment.
- STUDY_SYSTEM: Hck (UniProt P08631)
- Sequence (P08631 whole entry, looked up): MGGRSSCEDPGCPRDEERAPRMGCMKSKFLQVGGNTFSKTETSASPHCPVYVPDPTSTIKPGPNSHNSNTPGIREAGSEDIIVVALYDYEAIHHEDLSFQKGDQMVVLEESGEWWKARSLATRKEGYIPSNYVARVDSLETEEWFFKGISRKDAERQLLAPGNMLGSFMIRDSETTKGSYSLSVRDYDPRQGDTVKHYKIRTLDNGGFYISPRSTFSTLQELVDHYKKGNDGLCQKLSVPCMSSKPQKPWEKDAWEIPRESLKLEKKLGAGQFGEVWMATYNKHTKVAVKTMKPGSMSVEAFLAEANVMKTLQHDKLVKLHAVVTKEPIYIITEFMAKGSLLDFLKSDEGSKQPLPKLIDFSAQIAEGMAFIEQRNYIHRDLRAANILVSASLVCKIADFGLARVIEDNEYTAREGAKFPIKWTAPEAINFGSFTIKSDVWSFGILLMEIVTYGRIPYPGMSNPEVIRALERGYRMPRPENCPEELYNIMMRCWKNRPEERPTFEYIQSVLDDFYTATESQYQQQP
- TEST: phosphorylation enrichment, bacterial display (enrichment ratio); higher = better substrate or ligand; peptides without Tyr show the background

{"SEQUENCE_ENTRY": "KAIMTYVFSFY [ACTN4_Y260_S262F]", "phosphorylation enrichment": 0.464}
{"SEQUENCE_ENTRY": "LFLACYCIGGG [UBD_Y161]", "phosphorylation enrichment": 0.562}
{"SEQUENCE_ENTRY": "TLLERYGMIEI [ACSF3_Y355_T358I]", "phosphorylation enrichment": 0.465}
{"SEQUENCE_ENTRY": "QDLTDYLMKIL [ACTA2_Y190_R185Q]", "phosphorylation enrichment": 0.916}
{"SEQUENCE_ENTRY": "VEDHDYEGGIG [TKT_Y564_Y563D]", "phosphorylation enrichment": 0.609}
{"SEQUENCE_ENTRY": "RLAKTYETTLE [ALB_Y377]", "phosphorylation enrichment": 0.622}
{"SEQUENCE_ENTRY": "EKNANYKEGTF [CLRN1_Y171_I168N_YF]", "phosphorylation enrichment": 0.381}
{"SEQUENCE_ENTRY": "GKSFTYAAFHA [KCNT1_Y563]", "phosphorylation enrichment": 4.03}
{"SEQUENCE_ENTRY": "FFCRWYRNQKS [EREG_Y144_R147Q_YF]", "phosphorylation enrichment": 0.596}
{"SEQUENCE_ENTRY": "IFETDYFRKGG [INSR_Y1189_YF]", "phosphorylation enrichment": 0.529}
{"SEQUENCE_ENTRY": "HDRREYSRFEK [ITGB7_Y758_Y753H]", "phosphorylation enrichment": 0.524}
{"SEQUENCE_ENTRY": "KVGNEYVNKGQ [MYH7_Y410_T412N]", "phosphorylation enrichment": 0.327}
{"SEQUENCE_ENTRY": "RPDSPYSRLHD [DOK2_Y271_P274L]", "phosphorylation enrichment": 0.614}
{"SEQUENCE_ENTRY": "ILDEAYVMAIV [EGFR_Y764_S768I]", "phosphorylation enrichment": 0.531}
{"SEQUENCE_ENTRY": "GKMSSYAFFVQ [HMGB1_Y16]", "phosphorylation enrichment": 0.513}
{"SEQUENCE_ENTRY": "GRLVEYDIDEV [SMS_Y134]", "phosphorylation enrichment": 0.549}
{"SEQUENCE_ENTRY": "SFPPTYRYERG [INPPL1_Y661]", "phosphorylation enrichment": 0.437}
{"SEQUENCE_ENTRY": "ENRKFYKDLKE [PURA_Y156_M157K_YF]", "phosphorylation enrichment": 0.473}
{"SEQUENCE_ENTRY": "QNTVDYYDLYG [PTPN11_Y62_G60V]", "phosphorylation enrichment": 6.03}
{"SEQUENCE_ENTRY": "WISNRYPDFSS [PRPH2_Y184_L185P]", "phosphorylation enrichment": 0.497}
{"SEQUENCE_ENTRY": "SLRAHYDTPRS [DOK7_Y405]", "phosphorylation enrichment": 0.328}
{"SEQUENCE_ENTRY": "ETGNLYIAKVE [CNTN4_Y180]", "phosphorylation enrichment": 0.479}
{"SEQUENCE_ENTRY": "TFMKQYPKVFL [CNBD1_Y70]", "phosphorylation enrichment": 0.473}
{"SEQUENCE_ENTRY": "NFRTIYVNANE [KCNH2_Y475_T474I]", "phosphorylation enrichment": 0.525}
{"SEQUENCE_ENTRY": "DKITQYVEEVK [STX2_Y49]", "phosphorylation enrichment": 0.421}
{"SEQUENCE_ENTRY": "YQRITYHNWRH [PDE6B_Y556_R552Q]", "phosphorylation enrichment": 0.579}
{"SEQUENCE_ENTRY": "SGIYQYIIAKF [FOXL2_Y83]", "phosphorylation enrichment": 6.52}
{"SEQUENCE_ENTRY": "LQLLGYRPVYS [CHST6_Y358]", "phosphorylation enrichment": 0.581}
{"SEQUENCE_ENTRY": "YETVKYFNNER [ABCB7_Y345]", "phosphorylation enrichment": 1.83}
{"SEQUENCE_ENTRY": "PSQRPYVYYYS [PTEN_Y174_R173P]", "phosphorylation enrichment": 1.02}
{"SEQUENCE_ENTRY": "PKGIGYGQGAG [CSRP3_Y73]", "phosphorylation enrichment": 0.4}
{"SEQUENCE_ENTRY": "AIIGIYNLRDD [CDH23_Y2949_I2950N]", "phosphorylation enrichment": 5.28}
{"SEQUENCE_ENTRY": "YRASYYRRGDR [LTK_Y677]", "phosphorylation enrichment": 0.494}
{"SEQUENCE_ENTRY": "CSDPSYVKQME [CDC5L_Y464_Y459C]", "phosphorylation enrichment": 0.492}
{"SEQUENCE_ENTRY": "LREKVYVSLEA [RXRA_Y397_A398V]", "phosphorylation enrichment": 0.61}
{"SEQUENCE_ENTRY": "CEQELYSQLVF [WAS_Y102_W97C_YF]", "phosphorylation enrichment": 6.76}
{"SEQUENCE_ENTRY": "WIPIQCPIISE [NOG_Y222_Y222C]", "phosphorylation enrichment": 0.563}
{"SEQUENCE_ENTRY": "AAVDTVCRHNY [HLA-DRB1_Y107_Y107V]", "phosphorylation enrichment": 0.64}
{"SEQUENCE_ENTRY": "DRLASYLDKLR [KRT12_Y139_V143L]", "phosphorylation enrichment": 0.472}
{"SEQUENCE_ENTRY": "RLLVVYSWTQR [HBB_Y36_P37S]", "phosphorylation enrichment": 0.698}
{"SEQUENCE_ENTRY": "MSRNLYSGDCF [DDR2_Y736_Y740C_YF]", "phosphorylation enrichment": 2.12}
{"SEQUENCE_ENTRY": "PTTKTYFPHFF [HBA1_Y43_D48Y_YF]", "phosphorylation enrichment": 0.672}
{"SEQUENCE_ENTRY": "VNNTVYGIDAM [EIF3J_Y143_A141T]", "phosphorylation enrichment": 0.626}
{"SEQUENCE_ENTRY": "LFIGQYSGKKE [L1CAM_Y1229_S1224L]", "phosphorylation enrichment": 1.02}
{"SEQUENCE_ENTRY": "IIEDPYFGNDF [ACP1_Y132_S137F_YF]", "phosphorylation enrichment": 0.823}
{"SEQUENCE_ENTRY": "ALTDNYMYVVI [HAGH_Y61_L64V]", "phosphorylation enrichment": 1.52}
{"SEQUENCE_ENTRY": "RKLVDYNSARH [BIN1_Y150_D151N]", "phosphorylation enrichment": 0.383}
{"SEQUENCE_ENTRY": "RRVLVYRGRGA [QDPR_Y16_G17R]", "phosphorylation enrichment": 0.782}
{"SEQUENCE_ENTRY": "SETSRYLSDLF [KCNJ3_Y67]", "phosphorylation enrichment": 0.515}
{"SEQUENCE_ENTRY": "NQSVRYDSSLK [ABCC8_Y1353_L1349Q]", "phosphorylation enrichment": 0.429}
{"SEQUENCE_ENTRY": "EFGSGYPNDPK [RNASEH2A_Y210_D205E_YF]", "phosphorylation enrichment": 0.503}
{"SEQUENCE_ENTRY": "AKAEIYEMRPL [COX10_Y97]", "phosphorylation enrichment": 12.1}
{"SEQUENCE_ENTRY": "FRPPFYHRNCM [HGD_Y334_YF]", "phosphorylation enrichment": 0.48}
{"SEQUENCE_ENTRY": "LTFDEYRNISQ [ANXA3_Y216]", "phosphorylation enrichment": 1.08}
{"SEQUENCE_ENTRY": "DGYIDYAEFAK [MCFD2_Y138]", "phosphorylation enrichment": 0.657}
{"SEQUENCE_ENTRY": "FKNGDYSEVMK [LCT_Y1638_N1639S]", "phosphorylation enrichment": 0.413}
{"SEQUENCE_ENTRY": "FTFDPYSEEDP [IL2RB_Y387_YF]", "phosphorylation enrichment": 0.562}
{"SEQUENCE_ENTRY": "KEKLCYVALDF [ACTA1_Y220]", "phosphorylation enrichment": 1.27}
